Cited source for all entries: ChEMBL document CHEMBL1128556

target: Substance-K receptor (Rattus norvegicus); experiment: Binding affinity against tachykinin receptor 2 from rat colon.
quantity name: Ki (nM)
Numbers only; they are read as nM.

The following compounds have reported results that may help.
structure smiles string | target of assay | quantity name | output unit | val
O=C1OC2(CCN(CCc3c[nH]c4ccc(F)cc34)CC2)CN1Cc1ccccn1 | Substance-K receptor (Rattus norvegicus) | Ki | nM | 15.8
O=C1OC2(CCN(CCc3c[nH]c4ccc(F)cc34)CC2)CN1C(c1ccccc1)c1ccccc1 | Substance-K receptor (Rattus norvegicus) | Ki | nM | 20
OC1(CNCc2ccccc2)CCN(CCc2c[nH]c3ccc(F)cc23)CC1 | Substance-K receptor (Rattus norvegicus) | Ki | nM | 100
O=C1OC2(CCN(CCc3c[nH]c4ccc(F)cc34)CC2)CN1Cc1ccc(F)cc1 | Substance-K receptor (Rattus norvegicus) | Ki | nM | 3.98
CN1CC2(CCN(CCc3c[nH]c4ccc(F)cc34)CC2)OC1=O | Substance-K receptor (Rattus norvegicus) | Ki | nM | 1580

## Input Lab note: need Ki for O=C1NC2(CCN(CCc3c[nH]c4ccc(F)cc34)CC2)CN1Cc1ccccc1 on Substance-K receptor (Rattus norvegicus), anyone have it?
## Output 1.26

## Input For N#Cc1ccc(CN2CC3(CCN(CCc4c[nH]c5ccc(F)cc45)CC3)OC2=O)cc1 then?
## Output 100

## Input What do you get for O=C1CC2(CCN(CCc3c[nH]c4ccc(F)cc34)CC2)NN1Cc1ccccc1 ?
## Output 10

## Input Next record, please: COc1ccc(CN2CC3(CCN(CCc4c[nH]c5ccc(F)cc45)CC3)OC2=O)cc1
## Output 3.98

## Input Another: O=C1CC2(CCN(CCc3c[nH]c4ccc(F)cc34)CC2)CN1Cc1ccccc1
## Output 1.26

###

Target: Substance-K receptor (Rattus norvegicus)
Sequence (P16610 whole entry): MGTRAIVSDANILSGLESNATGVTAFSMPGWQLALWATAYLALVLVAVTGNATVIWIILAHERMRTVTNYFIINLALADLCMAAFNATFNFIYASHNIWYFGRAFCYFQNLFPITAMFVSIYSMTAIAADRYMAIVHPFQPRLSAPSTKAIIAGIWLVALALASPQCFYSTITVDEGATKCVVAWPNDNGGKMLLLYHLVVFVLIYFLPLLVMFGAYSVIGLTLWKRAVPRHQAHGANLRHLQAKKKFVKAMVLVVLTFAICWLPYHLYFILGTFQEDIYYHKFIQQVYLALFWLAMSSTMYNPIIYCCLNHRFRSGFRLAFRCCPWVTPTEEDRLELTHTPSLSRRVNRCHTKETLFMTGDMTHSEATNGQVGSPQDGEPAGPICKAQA
Reported pKi by item:
// field semantics: pKi = negative decimal log of concentration (mol/L)

Illustrative cases are given below, each with its answer.
structure smiles string | target of assay | quantity name | val
CC(=O)N(Cc1ccccc1)CC1(O)CCN(CCc2c[nH]c3ccc(F)cc23)CC1 | Substance-K receptor (Rattus norvegicus) | pKi | 8.80
O=C1OC2(CCN(CCc3c[nH]c4ccc(F)cc34)CC2)CN1CCc1ccccc1 | Substance-K receptor (Rattus norvegicus) | pKi | 8.00

## Input Look up pKi: O=C1NC2(CCN(CCc3c[nH]c4ccc(F)cc34)CC2)C(=O)N1Cc1ccccc1
## Output 6.90

## Input Now try O=C1OC2(CCN(CCc3c[nH]c4ccc(F)cc34)CC2)CN1C(=O)c1ccccc1 .
## Output 8.60

## Input Proceed to O=C1OC2(CCN(CCc3c[nH]c4ccc(F)cc34)CC2)CN1Cc1ccc(F)cc1F
## Output 8.20

###

Target: Substance-K receptor (Cavia porcellus)
Sequence (Q64077 whole entry): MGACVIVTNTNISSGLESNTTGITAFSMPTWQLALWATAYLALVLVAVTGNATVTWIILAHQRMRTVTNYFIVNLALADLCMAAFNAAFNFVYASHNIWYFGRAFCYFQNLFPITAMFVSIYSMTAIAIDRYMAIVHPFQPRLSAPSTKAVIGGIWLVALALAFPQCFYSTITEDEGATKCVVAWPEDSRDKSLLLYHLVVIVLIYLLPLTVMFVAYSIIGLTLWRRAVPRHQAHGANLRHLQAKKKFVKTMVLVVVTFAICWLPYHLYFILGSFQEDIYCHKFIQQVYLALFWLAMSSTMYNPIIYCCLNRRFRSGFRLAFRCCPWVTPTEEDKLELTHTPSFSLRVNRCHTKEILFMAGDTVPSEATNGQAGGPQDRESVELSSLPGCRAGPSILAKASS
quantity name: Ki (nM)
Expressed in nM, but write only the number.

## Input State the recorded Ki for this entry: O=C1OC2(CCN(CCc3c[nH]c4ccc(F)cc34)CC2)CN1Cc1ccccc1
## Output 2.51

###

Biological target: UniProt:P16610
Sequence (P16610 whole entry): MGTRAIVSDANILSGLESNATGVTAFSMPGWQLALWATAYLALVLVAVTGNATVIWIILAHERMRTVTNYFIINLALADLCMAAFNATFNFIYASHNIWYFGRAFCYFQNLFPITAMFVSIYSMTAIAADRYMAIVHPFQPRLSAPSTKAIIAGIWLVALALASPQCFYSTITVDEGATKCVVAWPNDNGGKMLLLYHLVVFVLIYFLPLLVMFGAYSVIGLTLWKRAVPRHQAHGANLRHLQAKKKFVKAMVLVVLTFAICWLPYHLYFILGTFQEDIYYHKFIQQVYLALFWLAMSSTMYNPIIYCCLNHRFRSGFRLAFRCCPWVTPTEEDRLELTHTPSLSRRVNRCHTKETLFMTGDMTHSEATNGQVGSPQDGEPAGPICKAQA
quantity name: Ki (nM)
Kindly provide the numeric value in nM only, without the unit symbol.

Solved entries (count: 4):
structure smiles string | Ki, nM
O=C1OC2(CCN(CCc3c[nH]c4ccc(F)cc34)CC2)CN1Cc1ccc(Cl)cc1 | 10
Fc1ccc2[nH]cc(CCN3CCC4(CC3)CCN(Cc3ccccc3)C4)c2c1 | 6.31
O=C1OC2(CCN(CCc3c[nH]c4ccc(F)cc34)CC2)CN1Cc1cccnc1 | 200
O=C1OC2(CCN(CCc3c[nH]c4ccc(F)cc34)CC2)CN1Cc1ccccc1 | 1.26

Continue with the compound presented below.
## Input Fill in the blank: the reported Ki of Cc1ccccc1CN1CC2(CCN(CCc3c[nH]c4ccc(F)cc34)CC2)OC1=O is ____.
## Output 12.6
